All values here come from patent US8324251B2.

- target of assay: CCR1 (Homo sapiens)
- Construct: the THP-1 cell line, which expresses the endogenous CCR1 receptor; endogenous in cells
- Sequence (P32246 1-355): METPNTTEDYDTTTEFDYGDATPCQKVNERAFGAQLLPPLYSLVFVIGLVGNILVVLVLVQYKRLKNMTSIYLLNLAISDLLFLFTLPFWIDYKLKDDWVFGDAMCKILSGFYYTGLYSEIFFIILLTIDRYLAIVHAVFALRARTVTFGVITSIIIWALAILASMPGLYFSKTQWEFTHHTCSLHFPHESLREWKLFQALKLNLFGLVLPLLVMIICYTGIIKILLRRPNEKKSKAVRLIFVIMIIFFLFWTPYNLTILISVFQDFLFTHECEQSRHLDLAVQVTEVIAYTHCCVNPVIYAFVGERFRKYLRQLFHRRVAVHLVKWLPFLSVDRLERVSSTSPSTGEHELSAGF
- procedure details: Antagonism of MIP-1α binding to human THP-1 cells (125-I MIP-1α radioligand binding)
- measurement context: 125-I labeled human MIP-1α, THP-1 cells expressing endogenous CCR1; read-out: CCR1 Binding Ki (n = 1 unless otherwise noted)
Structures can show the parent of a compound that is named as a salt.
Threshold-based label: Ki under 6 nM gives Satisfied, Ki not under 6 nM gives Not satisfied.

                                   compound  qualitative_label
0  OC(COc1ccc(Cl)cc1)C1CCN(Cc2ccc(Cl)cc2)CC1 (racemic) [Example 1i, TFA salt]      Not satisfied
1  NC(=O)Nc1cc(Cl)ccc1OCC(O)C1CCN(Cc2ccc(Cl)cc2)CC1 (racemic) [Example 1a, TFA salt]          Satisfied
2  OC(COc1ccc(Cl)cc1)C1CCN(Cc2ccccc2)CC1 (racemic) [Example 1l, TFA salt]      Not satisfied

### Prompt Field: below-cutoff. Rule: recorded Ki strictly less than 6 nM. Subject: NC(=O)Nc1cc(Cl)ccc1OCC(O)C1CCN(Cc2ccc(Cl)c(Cl)c2)CC1 (single isomer, unassigned) [1c Enantiomer 1]
### Response Not satisfied
